Record form. Attribute: Potency. Fill in for each entry.
# protocol-notes: Quantitative High-Throughput drug screen in 47 multiple myeloma cell lines against the NCATS MIPE library collection: VP6_DJ cell viability assay (AID 1919867); also: potency is read from the fitted curve at half-maximal effect; nearly all actives have a fitted effect of over 40% in size
# condition-set: ATP luminescence, 48 h; series mostly up to 45.8 µM
Results filed as inconclusive are left out. Calls of active or inactive are those of the source. Calls follow the shape of the dose curve; as a rule, active = well fitted cell-killing curve with a large enough effect; inconclusive = small, poorly fitted or top-dose-only effect, or effect the other way; inactive = no such curve, though single readings can be large or run the other way.

Please review the following examples before continuing.
structure-notation: CC(C)c1nn(-c2c(Cl)cccc2Cl)c2nc(Cc3ccc(OCCO)cc3)[nH]c(=O)c12
test-result: 0.0372 µM (active)

structure-notation: CN(C)CCCN=c1c2ccccc2n(C)c2[nH]c(=O)n(C)c(=O)c12
test-result: 14.8 µM (active)

structure-notation: Cc1cc(Nc2nc(N[C@@H](C)c3ccc(F)cc3)c(C#N)cc2F)n[nH]1
test-result: 4.69 µM (active)

structure-notation: COc1c(OCCCN2CCOCC2)ccc2c3n(c(=NC(=O)c4cnc(N)nc4)nc12)CCN3
test-result: 0.457 µM (active)

Continue with the compound presented below.
So what does the record say about Potency for `Nc1nc(Nc2ccc(S(N)(=O)=O)cc2)nn1C(=O)c1c(F)cccc1F` ?
5.26 µM (active)

###

# protocol-notes: qHTS for identification of novel therapeutic agents for treatment of microphthalmiaassociated transcription factor (MiT) renal cell carcinoma (RCC) (AID 1963991); also: potency is read from the fitted curve at half-maximal effect
# condition-set: TFE3-RCC UOK109 viability, CellTiter-Glo, 48 h; active = Z-AUC below -0.8 in all three lines
Inconclusive results are not listed. Calls of active or inactive are those of the source.
parameter-measured: Potency

Reference set (4 entries):
compound: CS(=O)(=O)N1CCN(Cc2cc3nc(-c4cccc5[nH]ncc45)nc(N4CCOCC4)c3s2)CC1
Potency: 105 nM (active)

compound: Cc1ccc(-c2ncn(-c3ccc(Nc4nccc(-c5cccc(N6CCOCC6)c5)n4)cc3)n2)cn1
Potency: 264 nM (active)

compound: C[C@@]12O[C@@H](C[C@]1(O)CO)n1c3ccccc3c3c4c(c5c6ccccc6n2c5c31)CNC4=O
Potency: 5260 nM (active)

compound: CC(NCc1ccc2c(c1)nc(NC(=O)c1ccc(-c3cn[nH]c3)s1)n2CC(C)(C)O)C(C)(C)C (stereo not given)
Potency: 935 nM (active)

Please find the next compound below.
Reported Potency, compound `Cn1c2ccccc2c2c3c(c4c5ccccc5n(CCC#N)c4c21)CNC3=O` : ____
7430 nM (active)

###

# protocol-notes: Cell Proliferation Assay against the TMD8 Cell Line (Caspase readout at 8 hrs) (AID 651713);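 as to caspase activation: 0% = DMSO and 100% = 9.2 µM bortezomib caspase signal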
# condition-set: TMD8 lymphoma cells, caspase activation luminescence; series mostly up to 46.1 µM
Records with an inconclusive call do not appear. Calls of active or inactive are those of the source. Calls come from the whole dose curve; as a rule, active = well fitted activation curve with a large enough effect; inconclusive = small, poorly fitted or top-dose-only effect, or another doubt; inactive = no such curve, though single readings can be large or run the other way.
Could you please pick one outcome from this set? class 1 = active, class 0 = inactive

molecule: Cn1c2cc(S(C)=O)sc2c2cnn(Cc3cccc(N)c3)c(=O)c21 (centres undefined)
label-class: class 0
--
molecule: C=CC(=O)Nc1cc2c(Nc3ccc(F)c(Cl)c3)ncnc2cc1OCCCN1CCOCC1
label-class: class 1
--
molecule: COc1cc2ncnc(Nc3ccc(F)c(Cl)c3)c2cc1NC(=O)C=CCN1CCCCC1
label-class: class 1
--
molecule: CCCCCN(CCC12CC3CC(CC(C3)C1)C2)C(=O)NCCCc1ccncc1
label-class: class 1
--
molecule: O=C(C=Cc1cccnc1)NCCCCC1CCN(C(=O)c2ccccc2)CC1
label-class: class 0
--
molecule: CN(C)CCCN=c1c2ccccc2n(C)c2[nH]c(=O)n(C)c(=O)c12
label-class: class 1
--
molecule: COC(=O)c1ccc2c(C(=Nc3ccc(N(C)C(=O)CN4CCN(C)CC4)cc3)c3ccccc3)c(O)[nH]c2c1
label-class: class 1
--
molecule: Cc1cc(Nc2cc(N3CCN(C)CC3)nc(Sc3ccc(NC(=O)C4CC4)cc3)n2)n[nH]1
label-class: class 0
--
molecule: O=C(C=Cc1cccc(S(=O)(=O)Nc2ccccc2)c1)NO
label-class: class 0
--
molecule: CN1CCN(c2ccc3nc(-c4c(N)c5c(F)cccc5[nH]c4=O)[nH]c3c2)CC1
label-class: class 1

Which outcome was entered for the molecule `CC(=O)c1c(C)c2cnc(Nc3ccc(N4CCNCC4)cn3)nc2n(C2CCCC2)c1=O` in this test?
class 1

Same question, `CCOc1cc2ncc(C#N)c(Nc3ccc(F)c(Cl)c3)c2cc1NC(=O)C=CCN(C)C` this time
class 1

For `C[C@@H](Oc1cc(-n2cnc3ccc(CN4CCN(C)CC4)cc32)sc1C(N)=O)c1ccccc1C(F)(F)F` then?
class 1

Consider next the molecule `CC[C@@H]1C(=O)N(C)c2cnc(Nc3ccc(C(=O)NC4CCN(C)CC4)cc3OC)nc2N1C1CCCC1` in the same way.
class 1

And the next one, `Cc1ccc(C(=O)Nc2cccc(C(F)(F)F)c2)cc1-c1ccc2nc(NCCN3CCOCC3)ncc2c1` ?
class 1

What about this molecule? `C=CC(=O)Nc1cc2c(Nc3ccc(F)c(Cl)c3)ncnc2cc1C#CC(C)(C)N1CCN(C)CC1`
class 1

Item: `CN(c1ncccc1CNc1nc(Nc2ccc3c(c2)CC(=O)N3)ncc1C(F)(F)F)S(C)(=O)=O`
class 1

Now the same for `Nc1ccc(C(=O)c2cc3c(ccc4ccccc43)[nH]2)cc1`
class 0

Subsequent entry: `COc1cc(OC2CCN(C)CC2)ccc1Nc1ncc2c(n1)n(C1CCCC1)c(=O)n2C`
class 1

###

# Tested on: CP250
# protocol-notes: qHTS profiling for inhibitors of Plasmodium falciparum proliferation (AID 504749); also: nearly all actives have a fitted effect of over 60% in size
# condition-set: P. falciparum in erythrocytes, SYBR Green DNA, 72 h; series mostly up to 28.7 µM
# Protocol: NIH National Institute of Allergy and Infectious Diseases [NIAID] NIH Chemical Genomics Center [NCGC] […] Because mature erythrocytes lack DNA, only Plasmodium-derived DNA is detected. NCGC Assay Protocol Summary: The SYBR Green viability assay was adapted from a method described previously (Plouffe et al., 2008). […] The following morning, fluorescence intensity at 485(14) nm excitation and 535(25) nm emission wavelengths was measured on an EnVision (Perkin Elmer) plate reader. […]
Inconclusive results are not listed. Calls of active or inactive are those of the source. The call rests on the fitted dose curve; in most records, active means well fitted inhibition curve with a large enough effect; inconclusive means small, poorly fitted or top-dose-only effect; inactive means flat fitted curve, though single readings scatter.
Just give me one of these, please: 1 = active, -1 = inactive

// below: answered compounds
compound: Nc1ccn([C@@H]2O[C@H](CO)[C@H](O)C2(F)F)c(=O)n1
label-class: 1
--
compound: CCC1=C[C@@H]2CN(C1)Cc1c([nH]c3ccccc13)[C@@](C(=O)OC)(c1cc3c(cc1OC)N(C)[C@@H]1[C@@](O)(C(=O)OC)[C@H](OC(C)=O)[C@]4(CC)C=CCN5CC[C@]31[C@@H]54)C2
label-class: 1
--
compound: COC(=O)C1=C(C)NC(C)=C(C(=O)OCCN2CCN(C(c3ccccc3)c3ccccc3)CC2)C1c1cccc([N+](=O)[O-])c1 (centres undefined)
label-class: 1

Field: next compound
Per the assay record, what outcome was assigned to O=c1[nH]c(=O)n(C2CCCO2)cc1F (centres undefined) ?
-1

###

# system: Mitogen-activated protein kinase 10 (Mus musculus)
# protocol-notes: JNK3 AlphaScreen Assay (AID 530);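 also: kinase came from lysate of stimulated human HepG2 cells; signal reports phosphorylation of biotinylated GST-cJun 1-79 at Ser73 with 10 µM ATP; % is scaled to controls: 0 for no effect and ±100 for the full control effect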
# condition-set: JNK3 lysate, c-Jun phosphorylation; series mostly up to 57.1 µM
Records with an inconclusive call do not appear. The source made the active and inactive calls. Calls follow the shape of the dose curve; as a rule, active = well fitted curve in either direction with a large enough effect (not every such curve was filed as active); inconclusive = small, poorly fitted or top-dose-only effect, or another doubt; inactive = flat fitted curve, though single readings scatter.
parameter-measured: activity change, negative = inhibition

structure-notation: CC(C)c1ccc(Cn2ccc3c4c(N)nc(NC5CC5)nc4ccc32)cc1
parameter-measured: activity change, negative = inhibition
test-result: inactive

structure-notation: CN(C)CCCN=c1c2ccccc2n(C)c2[nH]c(=O)n(C)c(=O)c12
parameter-measured: activity change, negative = inhibition
test-result: 0.481% [at 11.4 µM] (inactive)

structure-notation: C[C@H]1C[C@@H]2[C@@H]([C@@H](O)C[C@@]3(C)[C@H]2CC[C@]3(O)C(=O)CO)[C@@]2(C)C=CC(=O)C=C12
parameter-measured: activity change, negative = inhibition
test-result: inactive

structure-notation: COC(=O)C[C@](O)(CCCC(C)(C)O)C(=O)O[C@@H]1C(OC)=C[C@]23CCCN2CCc2cc4c(cc2[C@H]13)OCO4
parameter-measured: activity change, negative = inhibition
test-result: inactive

structure-notation: O=C(O)[C@H](Cc1c[nH]c2ccccc12)N1C(=O)c2ccccc2C1=O
parameter-measured: activity change, negative = inhibition
test-result: -0.545% [at 11.4 µM] (inactive)

In the following, a different compound is considered.
Tell me the measured activity change, negative = inhibition of `Nc1ccc(S(=O)(=O)Nc2ncccn2)cc1` , please.
inactive

###

# protocol-notes: qHTS for small molecule inhibitors of Yes1 kinase: Counter Assay (AID 686950);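 also: no kinase present so only ADP-Glo detection of a fixed ADP amount is tested; luminescence from ADP-Glo reporting ADP in a fixed ATP and ADP mixture; 0% = DMSO wells with ATP plus ADP and -100% = ATP-only wells without ADP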
# condition-set: series mostly up to 76.9 µM
# From the text: The Src family of non-receptor protein tyrosine kinases contains nine members, including Yes1, Src, Fyn, Lyn, and […]. These kinases have important roles in a variety of cellular functions, such as cell proliferation, survival, and differentiation. […] Two microliter of buffer (columns 1-48) are dispensed into Greiner, white solid-bottom 1536-well assay plates. […] The amount of ADP is then quantified by the ADP-Glo Kit (Promega, Madison, WI). […]
The source made the active and inactive calls. Calls follow the shape of the dose curve; as a rule, active = well fitted curve in the direction sought with a large enough effect; inactive = no such curve, though single readings can be large or run the other way.
parameter-measured: outcome

Example cases with answers are listed next.
molecule: Cc1cc(Nc2cc(N3CCN(C)CC3)nc(C=Cc3ccccc3)n2)n[nH]1
outcome: inactive
//
molecule: Cn1c2cc(S(C)=O)sc2c2cnn(Cc3cccc(N)c3)c(=O)c21 (stereo not given)
outcome: inactive
//
molecule: COc1ccc2c(c1)CC[C@@H](CN(C)CC(=O)O)[C@H]2c1ccccc1
outcome: inactive
//
molecule: Nc1ccc(C(=O)c2cc3c(ccc4ccccc43)[nH]2)cc1
outcome: inactive
//
molecule: N#Cc1c(O)c2c(-c3ccc(-c4ccccc4O)cc3)csc2[nH]c1=O
outcome: inactive

Each of the following entries comes with a recorded value; kindly state outcome for each.
1. Cc1ccc(C(N)=O)cc1Nc1nccc(-c2cn(C(C)C)c3cnccc23)n1
2. Nc1nc(Nc2ccc(S(N)(=O)=O)cc2)nn1C(=O)c1c(F)cccc1F
3. CC(C)[C@H](C(=O)Nc1ccc(C(=O)NO)cc1)c1ccccc1
4. C[C@@H]1CN(CC(=O)Nc2ccc3c(c2)Cc2cccc(-c4cc(=O)cc(N5CCOCC5)o4)c2S3)C[C@H](C)O1
5. Cc1cccc(C=NNc2cc(N3CCOCC3)nc(OCCc3ccccn3)n2)c1

["inactive", "inactive", "inactive", "inactive", "inactive"]
